Measured pIC50 of individual entries
Molecular target: Cytosol aminopeptidase (Sus scrofa)
pIC50: −log10 of the molar value.

>  <molecule>
C[C@H](NC(=O)[C@@H]1CCCN1C(=O)C1CCCC1S)C(N)=O (some centres not stated)

>  <assay-system>
Cytosol aminopeptidase (Sus scrofa)

>  <result>
< 3.00

$$$$

Now look at this entry.
Recall the reported pIC50 of C[C@H](NC(=O)[C@@H]1CCCN1C(=O)C1CCCCC1C(=O)NO)C(N)=O (some centres not stated) on Cytosol aminopeptidase (Sus scrofa) and write it down.
< 3.00
